assay: growth suppression of beta-catenin knockout HCT116, pilot screen, human colon tumor cells (AID 823); settings: CellTiter-Glo, 60 h, at 10 µM, active compounds read low;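 note: 0% = wells killed by 20 µM Hyamine and 100% = untreated DMSO cell wells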
Results filed as inconclusive are left out.
Measure name: viability (%)
Answer in %, number only, no unit symbol.

Solved cases below.
[[record]]
compound = "CCOC(=O)N1CCN(C(=O)CS(=O)Cc2nc(-c3ccc(C)cc3)oc2C)CC1 (configuration not stated)"
value = 89.3

[[record]]
compound = "COCCN(CCOC)C(=O)c1cc2sc3ccccc3c2s1"
value = 92.4

[[record]]
compound = "COC(=O)CCC(=O)Nc1ccc(NC(=O)CCC(=O)OC)cc1"
value = 103

[[record]]
compound = "CCCNC(=O)N1CCN(c2nc(C(C)C)c3c(c2C#N)CC(C)(C)OC3)CC1"
value = 68.8

[[record]]
compound = "O=C(NCCn1ccc2ccccc21)C1CCCCC1"
value = 87.7

[[record]]
compound = "COc1cc(NC(=O)c2onc(C)c2Cl)c(OC)cc1Cl"
value = 91.7


Look at this compound and give its reported viability. `COc1cc(NC(=O)Cn2ncc3c2-c2ccccc2OC3)cc(OC)c1OC`
86.6
